Reference source: patent US10689395B2

System: MV4-11 cells
Assay: Anticancer activity: Alamar Blue assay, 3-day proliferation
Format: cell-based
Details: Homo sapiens, AML cell line MV4-11, 72 h, read-out: MV4-11 EC50_μM
Listed next: entries and their corresponding EC50.
Write the number in nM without appending the unit.

>  <COMPOUND>
CCNC(=O)C[C@@H]1N=C(c2ccc(Cl)cc2)c2c(cnn2C)-c2cn(C)c(=O)cc21

>  <RESULT_UNIT>
nM

>  <EC50>
53

$$$$

--- query ---
[ask] Identify the reported EC50 for the following entry. CCNC(=O)CC1N=C(c2ccc(C#N)cc2)c2c(sc(C)c2C)-c2cn(C)c(=O)cc21 (stereo in doubt)
[reply] 25
